Test system: Inhibin beta A chain (activin A)
Experiment: INHBA (activin A) binders on microarrays, primary screen, biochemical, small-molecule microarray, 635 nm fluorescence scan (AID 1107);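 also: mouse activin A protein probed at 4.33 µg/mL on printed slides; score merges bound-protein fluorescence near 667 nm with spot signal-to-noise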
Conditions: small-molecule microarray binding, higher = more signal
EXPERIMENTAL_ENDPOINT: composite z-score
Give bare numbers.

C[C@@H](OCc1ccccc1)C1NC(=O)[C@@]23C(=O)N[C@@H](Cc4ccccc4)C2[C@H](C)[C@@]2(C)O[C@H]2C3/C=C/C/C=C\CNC(=O)CNC1=O (some centres not stated): 1.57
CCOC(=O)C1=CC[C@@H](c2ccc([N+](=O)[O-])cc2)N(S(=O)(=O)c2ccc(C)cc2)[C@H]1c1ccccc1: 0.521
CCCCN1CC=CC23O[C@@H]4C=CCOC(=O)[C@@H]4[C@H]2C(=O)N(C(C)CO)[C@@H]3C1=O (some centres not stated): 0.286

# map each compound to its composite z-score
1. COC(=O)C(CC#Cc1ccc2c(c1)[C@]1(C(=O)N2)[C@H](C(=O)O)[C@H]2C(=O)O[C@H](c3ccccc3)[C@H](c3ccccc3)N2[C@@H]1c1ccccc1OCCO)C(=O)OC
2. COc1ccc([Si](C)(C)[C@H]2[C@H](CCn3cc([C@H](O)c4ccccc4)nn3)O[C@@]3(C(=O)N(Cc4ccc(N5CCC5=O)cc4)c4ccccc43)[C@@H]2C)cc1
3. C=CCN1C(=O)[C@]2(CC=C)N=C(c3ccc(OCCCO)cc3)O[C@@H]2c2ccccc21
4. COC(=O)[C@H](Cc1ccccc1)N1CC(/C=C/C2CC2)=C[C@@H]1[C@@H](O)Cc1ccccc1

1. 0.194
2. 0.862
3. 1.38
4. 0.142
